These measurements were taken from patent US11471430B2.

Measured EC50, listed per entry.
# Test system: P. aeruginosa strain 762
# Method Notes: P. aeruginosa strain 762 killing assay
# Assay type: cell-based
# Experimental Setup: Pseudomonas aeruginosa; P. aeruginosa strain 762, 2 hours at 37° C., colonies counted
Outcome Measure: EC50 (nM)

compound="CCCCCCCCCCCCCCNC(=O)[C@@H](N)CN [Compound 791994]" test_target="P. aeruginosa strain 762" outcome_measure=EC50 value_qualifier== reported_measurement=1310
compound="CCCCCCCCCCCCCCC[C@H](N)[C@H](CN)N(C)C [Compound 791580]" test_target="P. aeruginosa strain 762" outcome_measure=EC50 value_qualifier== reported_measurement=390
compound="CCCCCCCCCCCCCCC[C@@H](O)[C@H](N)CN [Compound 791597]" test_target="P. aeruginosa strain 762" outcome_measure=EC50 value_qualifier== reported_measurement=890
compound="CCCCCCCCCCCCCCCCc1ccc(NC(=O)[C@@H](N)CN)cc1 [Compound 792206]" test_target="P. aeruginosa strain 762" outcome_measure=EC50 value_qualifier== reported_measurement=1120
compound="CCCCCCCCCCCCc1ccc(NC(=O)C(O)CN)cc1 (stereo not shown) [Compound 792211]" test_target="P. aeruginosa strain 762" outcome_measure=EC50 value_qualifier== reported_measurement=260
compound="CCCCCCCCCCCCc1ccc(NC(=O)[C@@H](N)CN)cc1 [Compound 791995]" test_target="P. aeruginosa strain 762" outcome_measure=EC50 value_qualifier== reported_measurement=870
compound="CCCCCCCCCC/C=C/CCC(N)(N)CN [Compound 791582]" test_target="P. aeruginosa strain 762" outcome_measure=EC50 value_qualifier== reported_measurement=540
compound="CCCCCCCC/C=C\\CCCCCCCC[C@@H](O)[C@H](N)CO [Compound 791601]" test_target="P. aeruginosa strain 762" outcome_measure=EC50 value_qualifier== reported_measurement=420
compound="CCCCCCCCCCCCc1ccc(NC(=O)[C@@H](N)CCN)cc1 [Compound 792212]" test_target="P. aeruginosa strain 762" outcome_measure=EC50 value_qualifier== reported_measurement=160
compound="CCCCCCCCCCCCCCC[C@H](N)[C@H](N)CN [Compound 791598]" test_target="P. aeruginosa strain 762" outcome_measure=EC50 value_qualifier== reported_measurement=990
compound="CCCCCCCCCCCCCCCCNC(=O)C(N)CN (stereo not shown) [Compound 792208]" test_target="P. aeruginosa strain 762" outcome_measure=EC50 value_qualifier== reported_measurement=720
compound="CCCCCCCCCCCCCCc1ccc(NC(=O)C(N)CN)cc1 (stereo not shown) [Compound 792205]" test_target="P. aeruginosa strain 762" outcome_measure=EC50 value_qualifier== reported_measurement=610
compound="CCCCCCCCCCCCCCC[C@H](O)[C@H](CO)N(C)C [Compound 791577]" test_target="P. aeruginosa strain 762" outcome_measure=EC50 value_qualifier=> reported_measurement=2500
compound="CCCCCCCCCCCCc1ccc(NC(=O)[C@H](N)CN)cc1 [Compound 791996]" test_target="P. aeruginosa strain 762" outcome_measure=EC50 value_qualifier== reported_measurement=810
compound="CCCCCCCCCCCCCCCCCCNC(=O)C(N)CN (stereo not shown) [Compound 792209]" test_target="P. aeruginosa strain 762" outcome_measure=EC50 value_qualifier=> reported_measurement=2500
compound="CCCCCCCCCCCCCCC[C@H](O)[C@H](CN)N(C)C [Compound 791578]" test_target="P. aeruginosa strain 762" outcome_measure=EC50 value_qualifier== reported_measurement=1440
compound="CCCCCCCCCC/C=C/CCC(N)(O)CO (stereo not shown) [Compound 791581]" test_target="P. aeruginosa strain 762" outcome_measure=EC50 value_qualifier== reported_measurement=1090
compound="CCCCCCCCCCCCCCC[C@@H](N)[C@H](CN)N(C)C [Compound 791579]" test_target="P. aeruginosa strain 762" outcome_measure=EC50 value_qualifier== reported_measurement=580
compound="CCCCCCCCCCCCCCNC(=O)[C@H](N)CN [Compound 791993]" test_target="P. aeruginosa strain 762" outcome_measure=EC50 value_qualifier== reported_measurement=940
